Sourced from patent US20260109707A1

# Test system: T-Rex 293 cell line SC3 cells lacking increased expression of androgen receptor protein
# experiment: Cellular growth inhibition assay, T-Rex 293 SC3 cells without doxycycline (CellTiter-Glo, 72 hours)
# Format: cell-based
# protocol.conditions: 72 h, T-Rex 293 cell line SC3 cells not exposed to doxycycline (lacking increased androgen receptor expression)
Consider the following compounds and their measured GI50 readings.

compound	GI50
Cc1sc2c(c1C)C(c1ccc(OC3CC4(CCN(c5ccc(C(=O)N[C@H]6CC[C@H](Oc7ccc(C#N)c(Cl)c7)CC6)nn5)CC4)C3)cc1)=N[C@@H](CC(C)(C)O)c1nnc(C)n1-2	> 3000 nM
Cc1sc2c(c1C)C(c1ccc(C[C@H]3C[C@@]4(CN(c5ccc(C(=O)N[C@H]6CC[C@H](Oc7ccc(C#N)c(Cl)c7)CC6)nn5)CCO4)C3)cc1)=N[C@@H](Cc1ncco1)c1nnc(C)n1-2	> 3000 nM
Cc1sc2c(c1C)C(c1ccc(C[C@H]3CC[C@@]4(CCCN(c5ccc(C(=O)N[C@H]6CC[C@H](Oc7ccc(C#N)c(Cl)c7)CC6)nn5)C4)C3)cc1)=N[C@@H](Cc1ncco1)c1nnc(C)n1-2	> 3000 nM
Cc1sc2c(c1C)C(c1ccc(N3CC(C4CCN(c5ccc(C(=O)N[C@H]6CC[C@H](Oc7ccc(C#N)c(Cl)c7)CC6)nn5)CC4)C3)cn1)=N[C@@H](C)c1nnc(C)n1-2	> 3000 nM
COCC[C@@H]1N=C(c2ccc(OC3CC4(CCCN(c5ccc(C(=O)N[C@H]6CC[C@H](Oc7ccc(C#N)c(Cl)c7)CC6)nn5)C4)C3)cc2)c2c(sc(C)c2C)-n2c(C)nnc21 (stereo partly shown)	500 to 1500 nM
Cc1sc2c(c1C)C(c1ccc(O[C@@H]3CC[C@]4(CCCN(c5ccc(C(=O)N[C@H]6CC[C@H](Oc7ccc(C#N)c(Cl)c7)CC6)nn5)C4)C3)cc1)=N[C@@H](Cc1ncco1)c1nnc(C)n1-2	< 500 nM
Cc1sc2c(c1C)C(c1ccc(C3CC([C@@H]4CCCN(c5ccc(C(=O)N[C@H]6CC[C@H](Oc7ccc(C#N)c(Cl)c7)CC6)nn5)C4)C3)cc1)=N[C@@H](Cc1ncco1)c1nnc(C)n1-2 (stereo partly shown)	> 3000 nM
Cc1sc2c(c1C)C(c1ccc(COC3(C)CC4(CN(c5ccc(C(=O)N[C@H]6CC[C@H](Oc7ccc(C#N)c(Cl)c7)CC6)nn5)C4)C3)cc1)=N[C@@H](Cc1ncco1)c1nnc(C)n1-2	< 500 nM
Cc1sc2c(c1C)C(c1ccc(Cl)cc1)=N[C@@H](CC(=O)NCCOCCOCCOCCOCCOC1CCN(c3ccc(C(=O)N[C@H]4CC[C@H](Oc5ccc(C#N)c(Cl)c5)CC4)nn3)CC1)c1nnc(C)n1-2	1500 to 3000 nM
Cc1sc2c(c1C)C(c1ccc(CCO[C@H]3CCCN(c4ccc(C(=O)N[C@H]5CC[C@H](Oc6ccc(C#N)c(Cl)c6)CC5)nn4)C3)cc1)=N[C@@H](Cc1ncco1)c1nnc(C)n1-2	< 500 nM

====

# Tested on: T-Rex 293 cell line SC3 cells lacking increased expression of androgen receptor protein
# experiment: Cellular growth inhibition assay, T-Rex 293 SC3 cells without doxycycline (CellTiter-Glo, 72 hours)
# Type: cell-based
# protocol.conditions: 72 h, T-Rex 293 cell line SC3 cells not exposed to doxycycline (lacking increased androgen receptor expression)
Consider the following compounds and their measured GI50 readings.

compound	GI50
Cc1sc2c(c1C)C(c1ccc(OC3CCC4(CCN(c5ccc(C(=O)N[C@H]6CC[C@H](Oc7ccc(C#N)c(Cl)c7)CC6)nn5)C4)C3)cc1)=N[C@@H](C)c1nnc(C)n1-2 (some centres unmarked)	< 500 nM
Cc1sc2c(c1C)C(c1ccc([C@H]3C[C@@H](C4CC5(CCN(c6ccc(C(=O)N[C@H]7CC[C@H](Oc8ccc(C#N)c(Cl)c8)CC7)nn6)CC5)C4)C3)cc1)=N[C@@H](Cc1ncco1)c1nnc(C)n1-2	> 3000 nM
Cc1sc2c(c1C)C(c1ccc(OC3CC4(CCN(c5ccc(C(=O)N[C@H]6CC[C@H](Oc7ccc(C#N)c(Cl)c7)CC6)nn5)CC4)C3)nc1)=NC1(CC1)c1nnc(C)n1-2	> 3000 nM
Cc1sc2c(c1C)C(c1ccc(C#CC3CC4(C3)CN(c3ccc(C(=O)N[C@H]5CC[C@H](Oc6ccc(C#N)c(Cl)c6)CC5)nn3)C4)cn1)=N[C@H](Cc1ncco1)c1nnc(C)n1-2	< 500 nM
Cc1sc2c(c1C)C(c1ccc([C@@H]3CCCCN3C(=O)[C@H]3CCCN(c4ccc(C(=O)N[C@H]5CC[C@H](Oc6ccc(C#N)c(Cl)c6)CC5)nn4)C3)cc1)=N[C@@H](Cc1ncco1)c1nnc(C)n1-2	> 3000 nM
